biological target: LTA4H (Homo sapiens, UniProt P09960); test: PGP peptidolysis assay by LC-MS/MS; type: biochemical; parameters: Full-length LTA4H containing a N-terminal (His)6-tag; (His)6-tag (N, cleaved yes); (Gly3-Ser)3 spacer (N, cleaved yes); made in house; host or cells: E. coli BL21 (DE3) star; settings: Table 1; read-out: IC50 PGP
Sequence (P09960 whole entry): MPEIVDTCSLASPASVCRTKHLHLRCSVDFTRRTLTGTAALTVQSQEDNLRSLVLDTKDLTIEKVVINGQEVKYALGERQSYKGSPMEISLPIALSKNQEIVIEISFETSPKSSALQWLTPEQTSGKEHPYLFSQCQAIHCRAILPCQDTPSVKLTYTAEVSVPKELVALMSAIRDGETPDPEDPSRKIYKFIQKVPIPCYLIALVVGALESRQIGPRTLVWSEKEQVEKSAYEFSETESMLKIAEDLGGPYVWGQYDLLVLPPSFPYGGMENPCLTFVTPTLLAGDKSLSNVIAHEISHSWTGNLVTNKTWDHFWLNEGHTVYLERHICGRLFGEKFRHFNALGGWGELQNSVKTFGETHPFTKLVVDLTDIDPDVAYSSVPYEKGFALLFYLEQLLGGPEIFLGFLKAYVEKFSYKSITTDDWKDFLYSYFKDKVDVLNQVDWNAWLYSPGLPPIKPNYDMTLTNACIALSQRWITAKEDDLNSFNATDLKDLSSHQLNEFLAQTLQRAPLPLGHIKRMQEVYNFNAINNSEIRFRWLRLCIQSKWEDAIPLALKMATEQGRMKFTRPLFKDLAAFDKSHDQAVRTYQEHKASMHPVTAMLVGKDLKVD
I'd be grateful if you could share measured pIC50 for these entries.
One number for each entry, as −log10 of the molar value.

Batch request: pIC50 for each of the following molecules.
1. Cn1cnc(-c2ccc(Oc3ccccc3)cc2)c1
2. c1ccc(Cc2ccc(-c3c[nH]cn3)cc2)cc1
3. COc1ccc(Cc2ccccc2)cc1 [4-MDM, 4-Methoxydiphenylmethane, reference compound]
4. Nc1nc(-c2ccc(Cc3ccccc3)cc2)cs1 [ARM-1, 4-(4-benzylphenyl) thiazol-2-amine, reference compound]
5. Oc1cc(-c2ccc(Oc3ccccc3)cc2)n[nH]1
6. c1ccc(Oc2ccc(-c3cc[nH]c3)cc2)cc1

Result:
[5.85, 6.42, 5.37, 6.41, 5.73, 7.46]

----------
molecular target: LTA4H (Homo sapiens, UniProt P09960); test: LTA4H aminopeptidase assay with surrogate substrate Pro-AMC; format: biochemical; parameters: Full-length LTA4H containing a N-terminal (His)6-tag; (His)6-tag (N, cleaved yes); (Gly3-Ser)3 spacer (N, cleaved yes); made in house; host or cells: E. coli BL21 (DE3) star
assay metric: IC50 (nM)
Answers are plain numbers, in nM.

According to the records, this compound c1ccc(Oc2ccc(-c3c[nH]cn3)cc2)cc1 [Compound 6, 5-(4-phenoxyphenyl)-1H-imidazole] displays IC50 of 77

----------
target: LTA4H (Homo sapiens, UniProt P09960); test: PGP peptidolysis assay by LC-MS/MS; format: biochemical; parameters: Full-length LTA4H containing a N-terminal (His)6-tag; (His)6-tag (N, cleaved yes); (Gly3-Ser)3 spacer (N, cleaved yes); made in house; host or cells: E. coli BL21 (DE3) star; conditions: Table 2; read-out: IC50 PGP
assay metric: pIC50
One number for each entry, as −log10 of the molar value.

Recorded pIC50, per entry:
O=Cc1ccc(Oc2nc3ncccc3s2)cn1 ... 5.95
OCc1ccc(Oc2nc3ccccc3s2)cc1 ... 7.12

According to the records, this compound O=Cc1ncc(Oc2nc3ccccc3s2)cn1 displays pIC50 of 4.95

----------
I'd be grateful if you could share measured IC50 for these entries.
Biological target: LTA4H (Homo sapiens)
Assay: LTA4H aminopeptidase assay with surrogate substrate Ala-AMC
Format: biochemical
Set-up: Full-length LTA4H containing a N-terminal (His)6-tag; (His)6-tag (N, cleaved yes); (Gly3-Ser)3 spacer (N, cleaved yes); made in house; host or cells: E. coli BL21 (DE3) star
Settings: Table 2
Method: The LTA4H aminopeptidase assays were run using several surrogate substrates: Arg-Rho110-D-Pro (Arg-Rho, Biosyntan GmbH, Germany) or Arg-AMC (Bachem, Switzerland), Pro-AMC (Bachem, Switzerland) and Ala-AMC (Bachem, Switzerland). Assays were performed at RT in 1536-well plates in Tris buffer, pH 7.2 containing NaCl (100 mM), CaCl2 (2 mM), CHAPS (0.5%) and BSA (0.1%). […] The reaction was incubated between 1–2 h (depending on substrate) prior to reading the increase in fluorescence on an EnVision.

Recorded IC50, per entry:
O=Cc1ncc(Oc2nc3ccccc3s2)cn1 [Compound 16] ... > 25 µM
OCc1ccc(Oc2nc3ccccc3s2)cc1 [Compound 14] ... > 25 µM

Consider the additional molecule presented here.
// returns IC50 for O=Cc1ccc(Oc2nc3ncccc3s2)cn1 [Compound 17] with LTA4H (Homo sapiens); value = 0.55 µM
